Target: WT EGFR kinase domain (Homo sapiens (Human), UniProt P00533)
Sequence (P00533 669-1210): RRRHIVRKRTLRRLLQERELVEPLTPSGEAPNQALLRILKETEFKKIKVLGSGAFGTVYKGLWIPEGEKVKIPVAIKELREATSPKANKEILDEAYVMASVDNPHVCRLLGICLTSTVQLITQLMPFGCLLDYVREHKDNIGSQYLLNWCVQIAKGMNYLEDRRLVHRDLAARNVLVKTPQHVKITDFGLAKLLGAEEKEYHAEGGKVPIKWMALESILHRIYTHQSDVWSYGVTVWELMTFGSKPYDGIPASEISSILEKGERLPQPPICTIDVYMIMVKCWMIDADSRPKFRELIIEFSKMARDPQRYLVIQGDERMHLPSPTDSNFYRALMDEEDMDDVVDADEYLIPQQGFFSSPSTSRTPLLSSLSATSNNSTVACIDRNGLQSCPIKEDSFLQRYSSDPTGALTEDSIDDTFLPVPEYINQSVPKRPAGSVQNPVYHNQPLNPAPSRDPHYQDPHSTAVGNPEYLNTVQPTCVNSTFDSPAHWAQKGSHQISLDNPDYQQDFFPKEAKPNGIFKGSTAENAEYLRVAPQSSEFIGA
Mark 1 (yes) only when IC50 stays strictly below 2 nM. Values equal to the cut-off are 0 (no).

Find out if reported IC50 for CCN1CCN(Cc2ccc(C(=O)N[C@@H]3[C@H]4Oc5ccc(Oc6ccnc(N)c6)cc5[C@@H]34)cc2C(F)(F)F)CC1 is less than 2 nM 0 (no)

Find out if reported IC50 for Cc1cc(C(=O)N[C@@H]2[C@H]3Oc4ccc(Oc5ccnc6c5CCC(=O)N6)cc4[C@@H]23)ccc1CN1CCN(C)CC1 is less than 2 nM 1 (yes)

Find out if reported IC50 for CN(C)[C@@H]1CCCN(Cc2ccc(C(=O)N[C@@H]3[C@H]4Oc5ccc(Oc6ccnc7c6CCC(=O)N7)cc5[C@@H]34)cc2C(F)(F)F)C1 is less than 2 nM 1 (yes)

Find out if reported IC50 for CCN1CCN(Cc2cc(C(=O)N[C@@H]3[C@H]4Oc5ccc(Oc6ccnc7c6CCC(=O)N7)cc5[C@@H]34)cc(C(F)(F)F)c2)CC1 is less than 2 nM 0 (no)

Find out if reported IC50 for CN(C)C1CCN(c2ccc(C(=O)N[C@@H]3[C@H]4Oc5ccc(Oc6ccnc7c6CCC(=O)N7)cc5[C@@H]34)cc2C(F)(F)F)CC1 is less than 2 nM 0 (no)

Find out if reported IC50 for CCN1CCN(Cc2ccc(C(=O)N[C@@H]3[C@H]4Oc5ccc(Oc6ccnc7c6COC(=O)N7)cc5[C@@H]34)cc2C(F)(F)F)CC1 is less than 2 nM 1 (yes)

Find out if reported IC50 for Cc1cccc(F)c1C(=O)N[C@@H]1[C@H]2Oc3ccc(Oc4ccnc5c4CCC(=O)N5)cc3[C@@H]12 is less than 2 nM 0 (no)

Find out if reported IC50 for CCN1CCN(Cc2ccc(C(=O)N[C@@H]3[C@H]4Oc5ccc(Oc6ccnc7c6CCC(=O)N7)cc5[C@@H]34)cc2OC(F)(F)F)CC1 is less than 2 nM 1 (yes)

Find out if reported IC50 for CCN1CCN(Cc2ccc(C(=O)N[C@@H]3[C@H]4Oc5ccc(Oc6ccnc7c6CCC(=O)N7)cc5[C@@H]34)cc2OC)CC1 is less than 2 nM 1 (yes)

Find out if reported IC50 for CCCCCCCCCCCC(=O)N[C@@H]1[C@H]2Oc3ccc(Oc4ccnc5c4CCC(=O)N5)cc3[C@@H]12 is less than 2 nM 0 (no)

Find out if reported IC50 for CN1CCN(c2ccc(C(=O)N[C@@H]3[C@H]4Oc5ccc(Oc6ccnc7c6CCC(=O)N7)cc5[C@@H]34)cc2C(F)(F)F)CC1 is less than 2 nM 0 (no)

Find out if reported IC50 for O=C1CCc2c(Oc3ccc4c(c3)[C@H]3[C@H](NC(=O)c5ccc(CN6CCCCC6)c(C(F)(F)F)c5)[C@H]3O4)ccnc2N1 is less than 2 nM 0 (no)

Find out if reported IC50 for NC1(c2cc(C(=O)N[C@@H]3[C@H]4Oc5ccc(Oc6ccnc7c6CCC(=O)N7)cc5[C@@H]34)cc(C(F)(F)F)c2)CC1 is less than 2 nM 1 (yes)
